- experimental.target: Prostaglandin G/H synthase 1 (Ovis aries, UniProt P05979)
- Sequence (P05979 whole entry): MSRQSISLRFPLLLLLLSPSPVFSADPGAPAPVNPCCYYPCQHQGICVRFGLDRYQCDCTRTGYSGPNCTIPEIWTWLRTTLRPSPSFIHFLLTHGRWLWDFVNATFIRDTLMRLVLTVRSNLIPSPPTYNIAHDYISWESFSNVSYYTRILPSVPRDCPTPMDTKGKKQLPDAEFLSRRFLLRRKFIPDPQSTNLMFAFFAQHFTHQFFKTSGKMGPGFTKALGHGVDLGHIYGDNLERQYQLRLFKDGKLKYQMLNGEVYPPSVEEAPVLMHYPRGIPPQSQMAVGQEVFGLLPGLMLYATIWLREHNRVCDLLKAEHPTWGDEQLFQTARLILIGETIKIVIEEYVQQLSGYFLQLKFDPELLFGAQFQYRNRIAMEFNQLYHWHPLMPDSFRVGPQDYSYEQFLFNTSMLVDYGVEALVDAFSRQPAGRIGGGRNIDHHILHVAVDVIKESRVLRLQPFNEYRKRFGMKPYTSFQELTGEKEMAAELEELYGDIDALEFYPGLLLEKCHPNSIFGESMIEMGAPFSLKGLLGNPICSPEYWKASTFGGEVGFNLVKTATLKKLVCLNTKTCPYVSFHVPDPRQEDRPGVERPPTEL
- experiment.summary: Inhibition of ovine COX1 by colorimetric assay
Below is a list of entries, each paired with its recorded IC50 value.

compound: Oc1cc(O)c2c(c1)CCc1ccccc1O2
IC50: > 438 µM
--
compound: O=C(/C=C/C=C/c1ccc(O)cc1)CCc1ccc(O)cc1
IC50: > 340 µM
--
compound: COc1c(O)cccc1CCc1cc(O)cc(O)c1
IC50: > 384 µM
--
compound: O=C(/C=C/C=C/c1ccc(O)cc1)/C=C/c1ccc(O)cc1
IC50: 19.8 µM
--
compound: COc1c(O)cc(CCc2ccccc2)cc1O
IC50: > 409 µM
--
compound: Oc1ccc(CC[C@@H](O)C[C@H](O)CCc2ccc(O)cc2)cc1 [(+)-HANNOKINOL]
IC50: > 316 µM
--
compound: COc1cc(CCc2ccccc2O)cc(OC)c1O
IC50: > 365 µM
--
compound: COc1cc(O)cc2c1Oc1ccccc1CC2
IC50: > 413 µM
--
compound: COc1cc(/C=C/C=C/C(=O)CCc2ccc(O)cc2)ccc1O
IC50: > 308 µM
--
compound: COc1cc2c(ccc3cc(O)cc(OC)c32)cc1O
IC50: 11.1 µM
--
compound: COc1cc(O)cc2c1-c1c(O)cccc1CC2
IC50: > 413 µM
--
compound: COc1ccc(CCc2ccccc2O)cc1OC
IC50: > 387 µM
--
compound: COc1cc(O)cc(CCc2cccc(O)c2)c1
IC50: > 409 µM
--
compound: Oc1cc(O)cc(CCc2ccccc2O)c1
IC50: > 434 µM
--
compound: O=c1cc(-c2ccc(O)cc2)oc2cc(O)cc(O)c12
IC50: > 370 µM
--
compound: COc1cc(O)c2c(c1)CCc1cc(O)ccc1-2
IC50: > 413 µM
--
compound: COc1cc(O)cc(CCc2ccccc2O)c1
IC50: > 409 µM
--
compound: COc1cc(CC[C@@H](O)C[C@H](O)CCc2ccc(O)c(OC)c2)ccc1O
IC50: > 266 µM
